Target: recombinant Falcipain-2 (FP-2) (Plasmodium falciparum)
Test: Falcipain-2 enzyme inhibition assay (fluorogenic substrate Z-Leu-Arg-AMC)
Conditions: FP-2 30 nM, pH 5.5, 30 min preincubation, substrate Z-Leu-Arg-AMC 25 μM
pIC50: −log10 of the molar value.
experimental-endpoint: pIC50

Consider the following illustrative entries.
molecule	subject-of-test	experimental-endpoint	numeric-readout
NC(=O)c1c(NC(=O)CSc2nc3scc(-c4ccccc4)c3c(=O)n2C2CCCCC2)sc2c1CCC2 [Compound 2a]	recombinant Falcipain-2 (FP-2) (Plasmodium falciparum)	pIC50	5.84
NC(=O)c1c(NC(=O)CSc2nc3scc(-c4ccccc4)c3c(=O)n2-c2ccc([N+](=O)[O-])cc2)sc2c1CCC2 [Compound 2c]	recombinant Falcipain-2 (FP-2) (Plasmodium falciparum)	pIC50	5.56

I. C=CCn1c(SCC(=O)Nc2sc3c(c2C(=O)OCC)CCC3)nc2scc(-c3ccccc3)c2c1=O [Compound 4a]
II. C=CCn1c(SCC(=O)Nc2nc3ccccc3s2)nc2scc(-c3ccccc3)c2c1=O [Compound 4c]
Problem: Of I versus II , which is the one with smaller reported pIC50? Return value: the label identifying the chosen record.
Solution: I
(I: 5.18, II: 5.48)

a. C=CCn1c(SCC(=O)Nc2sc3c(c2C(N)=O)CCC3)nc2scc(-c3ccccc3)c2c1=O [Compound 1]
b. C=CCn1c(SCC(=O)Nc2ccc(F)c(Cl)c2)nc2scc(-c3ccccc3)c2c1=O [Compound 4f]
Problem: Of a versus b , which is the one with smaller reported pIC50? Return value: the label identifying the chosen record.
Solution: b
(b: 5.27, a: 5.55)

---

Molecular target: recombinant Falcipain-2 (FP-2) (Plasmodium falciparum, UniProt Q8I6U4)
Sequence (Q8I6U4 244-484): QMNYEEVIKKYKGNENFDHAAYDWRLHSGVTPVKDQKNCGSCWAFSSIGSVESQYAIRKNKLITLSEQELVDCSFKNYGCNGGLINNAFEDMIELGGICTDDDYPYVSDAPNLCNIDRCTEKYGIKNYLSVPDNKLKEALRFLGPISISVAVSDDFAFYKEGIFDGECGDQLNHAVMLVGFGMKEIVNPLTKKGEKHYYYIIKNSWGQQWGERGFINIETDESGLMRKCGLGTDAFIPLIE
Experiment: Falcipain-2 enzyme inhibition assay (fluorogenic substrate Z-Leu-Arg-AMC)
Conditions: FP-2 30 nM, pH 5.5, 30 min preincubation, substrate Z-Leu-Arg-AMC 25 μM
pIC50: −log10 of the molar value.
experimental-endpoint: pIC50

molecule	experimental-endpoint	numeric-readout
NC(=O)c1c(NC(=O)CSc2nc3scc(-c4ccccc4)c3c(=O)n2-c2cccc(F)c2)sc2c1CCC2 [Compound 2b]	pIC50	5.69
C=CCn1c(SCC(=O)Nc2sc3c(c2C(N)=O)CCC3)nc2sc3c(c2c1=O)CCCC3 [Compound 3a]	pIC50	5.24
C=CCn1c(SCC(=O)Nc2ccc(C(=O)OCC)cc2)nc2scc(-c3ccccc3)c2c1=O [Compound 4b]	pIC50	5.24
C=CCn1c(SCC(=O)Nc2sc(C(=O)OCC)c(C)c2C(N)=O)nc2scc(-c3ccccc3)c2c1=O [Compound 4e]	pIC50	5.25
NC(=O)c1c(NC(=O)CSc2nc3scc(-c4ccccc4)c3c(=O)n2-c2ccc(Cl)cc2)sc2c1CCC2 [Compound 2d]	pIC50	5.37

A. NC(=O)c1c(NC(=O)CSc2nc3scc(-c4ccccc4)c3c(=O)n2Cc2ccccc2)sc2c1CCC2 [Compound 2e]
B. C=CCn1c(SCC(=O)Nc2sc3c(c2C(N)=O)CCC3)nc2scc(-c3ccc(Cl)cc3)c2c1=O [Compound 3b]
Problem: Between the two listed entries A and B , which has its pIC50 at the higher number? Return value: the label identifying the chosen record.
Solution: B
